- Target desc: PAR2 (HT-29 cells) (Homo sapiens)
- Construct: host or cells: HT-29
- Sequence (P55085 26-397): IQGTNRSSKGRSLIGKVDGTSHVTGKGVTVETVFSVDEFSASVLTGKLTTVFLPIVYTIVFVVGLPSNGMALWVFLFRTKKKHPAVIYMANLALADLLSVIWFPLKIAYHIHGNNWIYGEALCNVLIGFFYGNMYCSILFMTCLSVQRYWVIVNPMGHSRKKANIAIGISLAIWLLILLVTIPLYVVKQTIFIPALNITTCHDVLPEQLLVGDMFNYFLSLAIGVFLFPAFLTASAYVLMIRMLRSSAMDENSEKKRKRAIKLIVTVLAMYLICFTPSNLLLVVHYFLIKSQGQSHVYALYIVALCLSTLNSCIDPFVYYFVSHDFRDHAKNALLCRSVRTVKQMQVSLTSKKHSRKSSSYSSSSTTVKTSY
- Experiment summary: Ca FLIPR TETRA assay, ANTAGONIST mode, activator 8 μM SLIGKV
- Format: cell-based
- Condition info: HT-29 cells, activator 8 μM SLIGKV; maximal antagonist concentration per Method (A: 0.1, 1 or 2 μM; B: 50 μM)
Measured quantity: log10 of IC50 (log10 of the value in nM)
// stored as log10 of IC50 expressed in nM

Compound	Number
CC(C)c1cc(-c2ccc(F)cc2)nc2cc(C(=O)N3CCN(C(=O)C(O)C(C)C)CC3(C)C)oc12 (stereo not shown)	0.92

The compound listed as CC(C)c1cc(-c2ccc(F)cc2)nc2cc(C(=O)N3CCN(C(=O)C4(O)CCC4)CC3)oc12 shows log10 of IC50 equal to 3.67

Value of log10 of IC50 reported for the compound CC(C)c1nc(-c2ccc(F)cc2)nc2cc(C(=O)N3CCNC(=O)C3(C)C)oc12 is 2.97

Value of log10 of IC50 reported for the compound CC(C)(C)c1cc(-c2ccc(Cl)cc2)nc2cc(C(=O)N3CCN(c4cccnc4)CC3(C)C)oc12 is 1.76

Record CC(C)(C)c1cc(-c2ccc(Cl)c(F)c2)nc2cc(C(=O)N3CCN(c4cn[nH]c4)CC3(C)C)oc12 . Reported log10 of IC50: 0.90

# log10 of IC50 of CC1(c2cc(-c3ccc(F)cc3)nc3cc(C(=O)N4CCN(C(=O)C5CCC5)CC4(C)C)oc23)CC1 = 0.71

The reported value for CCC(CC)C(=O)N1CCN(C(=O)c2cc3nc(-c4ccc(F)cc4)cc(C(C)C)c3o2)C[C@@H]1C in terms of log10 of IC50 is 2.26

log10 of IC50 reported for this compound Cc1cc(-c2cc(C(C)(C)C)c3oc(C(=O)N4CCNC(=O)C4(C)C)cc3n2)ccc1F : 1.20

Note to self: log10 of IC50 recorded for CC(C)(C)c1cc(C2CCC(F)(F)CC2)nc2cc(C(=O)N3CCN(C(=O)[C@H]4CC[C@@H](O)CC4)CC3(C)C)oc12 was 1.11
